tested on: Renilla luciferase RNA; experiment: Barcoded aptazyme variant library screen: un-cleaved Renilla luciferase RNA by barcode read counts, HEK293-T cells; type: cell-based; conditions: un-cleaved Renilla luciferase RNA by barcode read counts; with 1 mM theophylline (ON) over without theophylline (OFF); HEK293-T cells; triplicate
The following molecules are listed with their measured Fold change in RNA expression between the ON state and the OFF state values.
// no unit, no text: just the number

Some molecules with recorded Fold change in RNA expression between the ON state and the OFF state:
RA473 (nucleic acid, expressed or natural sequence) DNA: GCGCGTCCTGGATTCGCGGAAACGCGTACATCCAGCTGACGAGTCCCAAATAGTGATACCAGCATCGTCTTGATGCCCTTGGCAGCACTAGGACGAAACGCGC | 0.3
RA375 (nucleic acid, expressed or natural sequence) DNA: GCGCGTCCTGGATTCGCGGAAACGCGTACATCCAGCTCCGGAATACCAGCATCGTCTTGATGCCCTTGGAAGTCCGGGACGAGTCCCAAATAGGACGAAACGCGC | 0.8
RA451 (nucleic acid, expressed or natural sequence) DNA: GCGCGTCCTGGATTCGCGGAAGAATACCAGCATCGTCTTGATGCCCTTGGAAGTCTAACGCGTACATCCAGCTGACGAGTCCCAAATAGGACGAAACGCGC | 0.5

GET /values?readout=Fold change in RNA expression between the ON state and the OFF state&item= RA406 (nucleic acid, expressed or natural sequence) DNA: GCGCGTCCTGGATTCGCGGAAACGCGTACATCCAGCTGACGAGTCCCCGGAATACCAGCATCGTCTTGATGCCCTTGGAAGTCCGAAATAGGACGAAACGCGC
0.7

GET /values?readout=Fold change in RNA expression between the ON state and the OFF state&item= RA402 (nucleic acid, expressed or natural sequence) DNA: GCGCGTCCTGGATTCGAGAATACCAGCATCGTCTTGATGCCCTTGGAAGTCTCGCGCGGAAACGCGTACATCCAGCTGACGAGTCCCAAATAGGACGAAACGCGC
0.7

GET /values?readout=Fold change in RNA expression between the ON state and the OFF state&item= RA407 (nucleic acid, expressed or natural sequence) DNA: GCGCGTCCTGGATTCGCGGAAACGCGTACATCCAGCTGACGAGTCCCAAATAGGACGGAATACCAGCATCGTCTTGATGCCCTTGGAAGTCCGAAACGCGC
0.7

GET /values?readout=Fold change in RNA expression between the ON state and the OFF state&item= RA445 (nucleic acid, expressed or natural sequence) DNA: GCGCGTCGAGAATACCAGCATCGTCTTGATGCCCTTGGAAGTCTCCTGGATTCGCGGAAACGCGTACATCCAGCTGACGAGTCCCAAATAGGACGAAACGCGC
0.5
